// Ki collected for UniProt:P37289
Sequence (P37289 whole entry): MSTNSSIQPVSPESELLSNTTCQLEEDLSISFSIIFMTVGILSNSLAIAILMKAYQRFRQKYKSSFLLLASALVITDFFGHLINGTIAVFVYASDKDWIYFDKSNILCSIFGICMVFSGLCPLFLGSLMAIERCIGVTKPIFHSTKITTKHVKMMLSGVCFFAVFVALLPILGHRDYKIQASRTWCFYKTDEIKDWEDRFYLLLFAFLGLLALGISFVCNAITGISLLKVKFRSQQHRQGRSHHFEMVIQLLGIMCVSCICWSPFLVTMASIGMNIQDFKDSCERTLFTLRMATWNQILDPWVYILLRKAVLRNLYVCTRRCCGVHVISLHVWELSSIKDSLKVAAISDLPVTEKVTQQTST
readout-label: Ki (nM)

[[record]]
molecule = "CCCCCC(O)CC=C1C(=O)C=CC1CC=CCCCC(=O)O (stereo not given) [CAS_41598-07-6]"
readout_label = "Ki"
comparator = "="
observed = 2500

[[record]]
molecule = "O=C(O)CCCC=CCC1C(O)CC(O)C1C=CC(O)COc1cccc(C(F)(F)F)c1 (stereo not given) [CAS_40666-16-8]"
readout_label = "Ki"
comparator = "="
observed = 100

[[record]]
molecule = "O=C(O)CCCC=CC[C@@H]1[C@@H](CC[C@@H](O)CCc2ccccc2)[C@H](O)C[C@@H]1O [NSC_170548]"
readout_label = "Ki"
comparator = "="
observed = 98

[[record]]
molecule = "O=C(O)CCC/C=C\\C[C@H]1C(=O)C[C@@H](O)[C@@H]1/C=C/[C@@H](O)CCc1ccccc1 [17-PHENYL TRINOR PROSTAGLANDIN E2]"
readout_label = "Ki"
comparator = "="
observed = 1410

[[record]]
molecule = "O=C(O)CCCCCCc1c(O)n(Cc2ccccc2)c(=O)n1NCC(O)C1CCCCC1 (stereo not given) [CAS_122021]"
readout_label = "Ki"
comparator = ">"
observed = 10000

[[record]]
molecule = "O=NN1CSCSC1 [NSC_130741]"
readout_label = "Ki"
comparator = ">"
observed = 10000

[[record]]
molecule = "CC(C)OC(=O)CCC/C=C/C[C@@H]1[C@@H](CC[C@@H](O)CCc2ccccc2)[C@H](O)C[C@@H]1O [LATANOPROST (PHXA41)]"
readout_label = "Ki"
comparator = "="
observed = 4200

[[record]]
molecule = "CC(C)OC(=O)CCC/C=C\\C[C@@H]1[C@@H](/C=C/[C@@H](O)CCc2ccccc2)[C@H](O)C[C@@H]1O [CAS_130209-76-6]"
readout_label = "Ki"
comparator = "="
observed = 59

[[record]]
molecule = "CCCCCCCC(=O)CCC1C(O)CC(O)C1CC=CCCCC(=O)OC(C)C (stereo not given) [CAS_151671]"
readout_label = "Ki"
comparator = "="
observed = 5900

[[record]]
molecule = "CCCCC[C@H](O)/C=C/C1[C@@H](C/C=C\\CCCC(=O)O)[C@H]2CO[C@@H]1C2 (stereo not given in full) [U46619]"
readout_label = "Ki"
comparator = "="
observed = 8900

